# Test system: CAKI-1
# Test name: NCI tumour cell line growth inhibition, 48 h
Activity calls are given as the source filed them. Rule as the data show it: active = GI50 up to about 1.1 µM and inactive = higher.
Observed property: GI50

// solved cases for GI50 follow
[
  {
    "Molecule": "N#Cc1c(Nc2ccc(F)cc2)[n+]([O-])c2ccc(Cl)cc2[n+]1[O-]",
    "GI50": "3.18 µM (inactive)"
  },
  {
    "Molecule": "O=C1C=C(Br)c2c(-c3ccccc3)oc3cccc1c23",
    "GI50": "> 76.9 µM (inactive)"
  },
  {
    "Molecule": "CN1CCN=C1c1nnn(-c2ccc([N+](=O)[O-])cc2)c1-c1ccccc1",
    "GI50": "> 100 µM (inactive)"
  },
  {
    "Molecule": "O=C1c2n[nH]nc2C(=O)c2n[nH]nc21",
    "GI50": "> 100 µM (inactive)"
  },
  {
    "Molecule": "CC1=C2C3OC(=O)C(C)C3C(O)C[C@@]2(C)C(=O)CC1 (stereo partly specified)",
    "GI50": "> 100 µM (inactive)"
  }
]

May I ask what GI50 has been recorded for "CC(C)(C)c1ccc(-n2c3nc(=O)n(-c4ccccc4CO)c(=O)c-3cc3ccccc32)cc1" ?
> 100 µM (inactive)

May I ask what GI50 has been recorded for "CCOC(=O)C1=C(c2ccccc2)N(C)c2ccccc2S1" ?
31 µM (inactive)

May I ask what GI50 has been recorded for "Clc1ccc(C2=CCN3CC=C(c4ccc(Cl)cc4)C23)cc1" ?
14.3 µM (inactive)

May I ask what GI50 has been recorded for "CC(C)N1CCN(c2ccncc2S(=O)(=O)N2CCCCC2)CC1" ?
> 100 µM (inactive)

May I ask what GI50 has been recorded for COC(=O)C(=O)C(C(=O)OC)C(=O)C(=O)Nc1cc(Cl)c(Cl)cc1Cl (stereo unspecified) ?
> 100 µM (inactive)

May I ask what GI50 has been recorded for "O=C(CC(=O)Nc1ccc(C(=O)O)cc1)Nc1ccc(C(=O)O)cc1" ?
> 100 µM (inactive)

----------
# Tested on: MOLT-4
# Test name: NCI tumour cell line growth inhibition, 48 h
Calls of active or inactive are those of the source. No stated cut-off is given here; in the data, active = GI50 up to about 1.1 µM and inactive = higher.
Please answer using one outcome listed in Yes (active), No (inactive)

[
  {
    "Molecule": "C[C@@H](CO)C1=C(O)C(=O)c2c(ccc3c2CCCC3(C)C)C1=O",
    "Answer label": "No"
  },
  {
    "Molecule": "CC(N)CC(=O)O (stereo not given)",
    "Answer label": "No"
  },
  {
    "Molecule": "C=CC(=O)N1C/C(=C\\c2ccc([N+](=O)[O-])cc2)C(=O)/C(=C/c2ccc([N+](=O)[O-])cc2)C1",
    "Answer label": "Yes"
  },
  {
    "Molecule": "COC(=O)C(=O)C(C(=O)OC)C(=O)C(=O)Nc1cc(Cl)c(Cl)cc1Cl (stereo not given)",
    "Answer label": "No"
  }
]

Record lookup: outcome of this test for "Cc1[nH]c2c(c1Cc1ccccc1)C1=NC=C(O)NN1C=N2" ?
No

----------
Let's look at some molecules and their measured GI50.
# Tested on: RPMI-8226
# Test name: NCI tumour cell line growth inhibition, 48 h
Activity calls are given as the source filed them. Cut-off read from the data, not from the text of the source: active = GI50 up to about 1.1 µM and inactive = higher.

[
  {
    "Molecule": "O=C(OC(=C(c1ccccc1)c1ccccc1)N1CCCC1=S)C(c1ccccc1)c1ccccc1",
    "GI50": "7.55 µM (inactive)"
  },
  {
    "Molecule": "CC(C)CCCC(C)[C@H]1CCC2[C@@H]3CCC4Nc5c(cnn5-c5ccccc5)C[C@]4(C)C3CC[C@@]21C (stereo partly specified)",
    "GI50": "3.61 µM (inactive)"
  }
]

May I ask what GI50 has been recorded for "O=C1NC(NNc2ccccc2)=N/C1=C\c1ccccc1O" ?
81.5 µM (inactive)

May I ask what GI50 has been recorded for "CC(C)(Oc1ccc2c(=O)cc(-c3ccc(Cl)cc3)oc2c1)C(=O)Nc1c(Cl)cccc1Cl" ?
> 100 µM (inactive)

May I ask what GI50 has been recorded for O=C(NC1C(=O)NNC1c1cccc([N+](=O)[O-])c1)c1ccccc1 (stereo unspecified) ?
> 100 µM (inactive)

May I ask what GI50 has been recorded for "O=c1[nH]cc(/C=N\Nc2ccccc2)c(=O)[nH]1" ?
> 100 µM (inactive)

----------
Let's look at some molecules and their measured GI50.
# Tested on: DU-145
# Test name: NCI tumour cell line growth inhibition, 48 h
Active and inactive are the calls of the source. Cut-off read from the data, not from the text of the source: active = GI50 up to about 1.1 µM and inactive = higher.

// solved cases for GI50 follow
[
  {
    "Molecule": "Cc1cc(S(=O)(=O)Nc2nncn2-c2ccc(Cl)cc2)c(S)cc1Cl",
    "Tested on": "DU-145",
    "GI50": "> 10 µM (inactive)"
  },
  {
    "Molecule": "Nc1ccn(C2OC(COC(=O)C34CC5CC(CC(C5)C3)C4)C(O)C2O)c(=O)n1 (centres undefined)",
    "Tested on": "DU-145",
    "GI50": "> 100 µM (inactive)"
  },
  {
    "Molecule": "CC1/C(=N/O)CC(c2ccccc2)N(N=O)C1c1ccccc1 (centres undefined)",
    "Tested on": "DU-145",
    "GI50": "> 100 µM (inactive)"
  }
]

For the record C=C(Cl)C(=C)CCC(Cl)C(C)C (centres undefined) , what value of GI50 is listed for DU-145?
> 100 µM (inactive)

----------
# Tested on: OVCAR-3
# Test name: NCI tumour cell line growth inhibition, 48 h
The source made the active and inactive calls. No stated cut-off is given here; in the data, active = GI50 up to about 1.1 µM and inactive = higher.
Please answer using one outcome listed in active, inactive

Reference set, count: 3
[
  {
    "Compound": "Nc1c(C(=O)c2ccc(Cl)cc2)[nH]c(Nc2ccc(Cl)cc2)c1C(=S)Nc1ccccc1",
    "Answer label": "inactive"
  },
  {
    "Compound": "O=P1(C(O)/C=C/c2ccccc2)N(Cc2ccccc2)[C@@H]2CCCC[C@H]2N1Cc1ccccc1 (stereo partly drawn)",
    "Answer label": "inactive"
  },
  {
    "Compound": "CC1(C)OC(=O)[C@@](C)([C@H](O)c2ccccc2)O1",
    "Answer label": "inactive"
  }
]

Record lookup: outcome of this test for CC1/C(=N/O)CC(c2ccccc2)N(N=O)C1c1ccccc1 (stereo not drawn) ?
inactive

Record lookup: outcome of this test for "CCCCCCNC(=O)C1=C(C)NC(C)=C(C(=O)NCCCCCC)C1" ?
inactive

Record lookup: outcome of this test for "COC(=O)c1ncc2c(=O)[nH]c3ccccc3c2c1C(=O)OC" ?
inactive

Record lookup: outcome of this test for "O=c1[nH]c2cc(C(F)(F)F)ccc2nc1C(F)(F)F" ?
inactive

Record lookup: outcome of this test for "Cc1ccc(-n2cnc3c(N)nc(N)nc32)cc1" ?
inactive

----------
# Test system: TK-10
# Test name: NCI tumour cell line growth inhibition, 48 h
The source made the active and inactive calls. Cut-off read from the data, not from the text of the source: active = GI50 up to about 1.1 µM and inactive = higher.
Observed property: GI50

[
  {
    "Compound": "Cc1ccc2c(c1)CC1(C2)Cc2ccc(C)cc2C1=O (stereo not given)",
    "GI50": "31.2 µM (inactive)"
  }
]

For the record "O=C1NC(NNc2ccccc2)=N/C1=C\c1ccccc1O" , what value of GI50 is listed for TK-10?
67.3 µM (inactive)

For the record "CC(C)OC(=O)C1=C(O)c2ccccc2S(=O)(=O)N1" , what value of GI50 is listed for TK-10?
> 100 µM (inactive)

For the record "CCn1c(-c2ccc(C)cc2)cs/c1=N\C(P(=O)(O)O)P(=O)(O)O" , what value of GI50 is listed for TK-10?
> 100 µM (inactive)

----------
Let's look at some compounds and their measured GI50.
# Test system: DU-145
# Test name: NCI tumour cell line growth inhibition, 48 h
Activity calls are given as the source filed them. No stated cut-off is given here; in the data, active = GI50 up to about 1.1 µM and inactive = higher. *1 amine or outer side, *2 acyl side, *3 side chain or, on linkers, in order; H or OH if unused. Where a SMILES comes first, the peptide text is derived from it. Bridges are numbered along the chain shown (N, C = ends). Roman numbers before positions name the chains, in order. [ ]: non-standard residue; d: D form. Actinocin(1to9) = Cc1c2oc3c(C)ccc(C(=O)[*:2])c3nc-2c(C(=O)[*:1])c(N)c1=O; NMeV = CN[CH](C(=O)O)C(C)C; Sar = CNCC(=O)O

[
  {
    "Compound": "Cc1n[nH]c(C(F)(F)F)c1/N=N/N(C)C",
    "GI50": "7.69 µM (inactive)"
  },
  {
    "Compound": "Cc1[nH]c2c(c1Cc1ccccc1)C1=NC=C(O)NN1C=N2",
    "GI50": "> 100 µM (inactive)"
  }
]

For the record COc1ccc(CC2NC(=O)C(NC(=O)c3c4nc5c(C(=O)NC6C(=O)NC(Cc7ccc(OC)cc7)C(=O)N7CCCC7C(=O)N(C)CC(=O)N(C)C(C(C)C)C(=O)OC6C)ccc(C)c5oc-4c(C)c(=O)c3N)C(C)OC(=O)C(C(C)C)N(C)C(=O)CN(C)C(=O)C3CCCN3C2=O)cc1 (stereo not drawn) (I: TY(Me)P[Sar][NMeV] / II: TY(Me)P[Sar][NMeV]; ester I:1-I:C, II:1-II:C; linker I:N-II:N via Actinocin(1to9); configuration not given here) , what value of GI50 is listed for DU-145?
< 0.001 µM (active)
